Quick list: GI50 per entry.
Test system: SR
procedure.details: NCI tumour cell line growth inhibition, 48 h
Structures can show the parent of a compound that is named as a salt. The source made the active and inactive calls. Rule as the data show it: active = GI50 up to about 1.1 µM and inactive = higher.

CC(=O)OC1COC(n2ccc3cc(Br)c([N+](=O)[O-])cc32)C(OC(C)=O)C1OC(C)=O (stereo not drawn) = 30.4 µM (inactive)
CC(=O)N(O)CCCCCNC(=O)CCC(=O)N(O)CCCCCNC(=O)CCC(=O)N(O)CCCCCN [DEFEROXAMINE HYDROCHLORIDE] = 8.87 µM (inactive)
CC1=CC2C3(C)C(C)(C(C)=CP3(=O)c3c(C(C)C)cc(C(C)C)cc3C(C)C)C1P2(=O)c1c(C(C)C)cc(C(C)C)cc1C(C)C (stereo not drawn) = 1.34 µM (inactive)
O=[N+]([O-])/C(C(Cl)=C(Cl)Cl)=C(\SCc1ccccc1)N1CCCCC1 = 8.34 µM (inactive)
COC(=O)c1c(O)ccc2c1c1c(n2CCc2ccc(OC)c(OC)c2)C(=O)c2ccccc2C1=O = 14.8 µM (inactive)

compound COC(=O)CC(NC(=O)OCc1ccccc1)C(C(C)=O)C(=O)OCc1ccccc1 (stereo not drawn) , GI50 observed: > 100 µM (inactive)

compound COc1ccc2c(c1)O[C@@H]1[C@@H](OC3OC(CO)C(O)C(O)C3O)Oc3cc(OC)c(OC)cc3[C@]1(O)C2=O (stereo partly drawn) , GI50 observed: > 100 µM (inactive)

compound O=C1C=C/C(=N/c2ccccc2)c2ccccc21 , GI50 observed: 11.4 µM (inactive)

----------
Test system: SK-MEL-28
procedure.details: NCI tumour cell line growth inhibition, 48 h
The source made the active and inactive calls. No stated cut-off is given here; in the data, active = GI50 up to about 1.1 µM and inactive = higher.
value.kind: GI50

Observe how each entry below is paired with its result.
O=S(=O)(O)c1ccc(-c2c3nc(c(-c4ccc(S(=O)(=O)O)cc4)c4ccc([nH]4)c(-c4ccc(S(=O)(=O)O)cc4)c4nc(c(-c5ccc(S(=O)(=O)O)cc5)c5ccc2[nH]5)C=C4)C=C3)cc1 = 24.1 µM (inactive)
O=C(O)C1(C(=O)O)CC1(C(=O)O)C(=O)O = > 100 µM (inactive)
S=C(S)NCC1CCC(CNC(=S)S)CC1 (centres undefined) = 56.2 µM (inactive)

Turning now to a further compound:
compound CCCc1c(OC)c(=O)c2c(O)cc(OC)c3c4c(OC)cc(O)c5c(=O)c(OC)c(CCC)c(c1c23)c54 , GI50 observed: 5.68 µM (inactive)

----------
Test system: Malme-3M
procedure.details: NCI tumour cell line growth inhibition, 48 h
Calls of active or inactive are those of the source. Rule as the data show it: active = GI50 up to about 1.1 µM and inactive = higher.
value.kind: GI50

CCCCCCCCCCCCCCCC(=O)OC(COC(C)=O)CO[PH](=O)O (stereo not drawn) = 34.8 µM (inactive)
S=c1sc2sc(=S)sc2s1 = > 100 µM (inactive)

Turning now to a further compound:
compound O=C(N/N=C/c1cccc(F)c1)c1ccncc1 , GI50 observed: > 100 µM (inactive)

----------
System: MCF7
procedure.details: NCI tumour cell line growth inhibition, 48 h
Calls of active or inactive are those of the source. Rule as the data show it: active = GI50 up to about 1.1 µM and inactive = higher.
Quick list: GI50 per entry.

compound COc1ccc(CCNC(=O)c2ccccc2C2c3ccc(OCc4ccccc4)cc3Oc3cc(OCc4ccccc4)ccc32)cc1OC , GI50 observed: > 100 µM (inactive)

compound COc1cccc2cc(C(=O)O)c(=O)oc12 , GI50 observed: > 100 µM (inactive)

compound C=C1C(=O)C23CC1CCC2C12CO[C@H](O)[C@H]1C(C)(C)[C@H](OC(C)=O)C[C@H]2OC3=O (stereo partly drawn) , GI50 observed: 15.8 µM (inactive)
